test: Cytotoxicity against human Hep3B cells assessed as induction of cell death incubated for 2 days by MTT assay; assay type: functional, cell-based, Hep 3B2; conditions: 48 h
pIC50: −log10 of the molar value.
Tick met if pIC50 is 5 or greater. Tick not met if pIC50 is less than 5.

compound: C[C@H]1O[C@@H](O[C@H]2CC[C@@]3(C)[C@@H](CC[C@]4(C)[C@@H]3C=CC3=C5CC(C)(C)CC[C@]5(CO)[C@@H](O)C[C@]34C)[C@]2(C)CO)[C@H](O)[C@@H](O[C@@H]2O[C@H](CO)[C@@H](O)[C@H](O)[C@H]2O)[C@H]1O
class assignment: not met
//
compound: CC(=O)O[C@H]1[C@H](O[C@H]2[C@@H](O)[C@@H](C)O[C@@H](O[C@H]3CC[C@@]4(C)[C@@H](CC[C@]5(C)[C@@H]4C=C[C@]46OC[C@@]7(CCC(C)(C)C[C@H]74)[C@@H](O)C[C@]65C)[C@]3(C)CO)[C@@H]2O)O[C@H](CO)[C@@H](O)[C@@H]1O
class assignment: met
//
compound: CC(=O)OC[C@@]1(C)[C@@H]2CC[C@]3(C)[C@H](C=C[C@]45OC[C@@]6(CCC(C)(C)C[C@H]64)[C@@H](O)C[C@]53C)[C@@]2(C)CC[C@@H]1O[C@@H]1O[C@H](C)[C@H](O)[C@H](O)[C@H]1O
class assignment: not met
//
compound: C[C@H]1O[C@@H](O[C@H]2CC[C@@]3(C)[C@@H](CC[C@]4(C)[C@@H]3C=C[C@]35OC[C@@]6(CCC(C)(C)C[C@H]63)[C@@H](O)C[C@]54C)[C@]2(C)CO)[C@H](O)[C@@H](O)[C@H]1O
class assignment: not met
//
compound: C[C@H]1O[C@@H](O[C@H]2CC[C@@]3(C)[C@@H](CC[C@]4(C)[C@@H]3C=C[C@]35OC[C@@]6(CCC(C)(C)C[C@H]63)[C@H](O)C[C@]54C)[C@]2(C)CO)[C@H](O)[C@@H](O)[C@H]1O
class assignment: not met
//
compound: C[C@H]1O[C@@H](O[C@H]2CC[C@@]3(C)[C@@H](CC[C@]4(C)[C@@H]3C=CC3=C5CC(C)(C)CC[C@]5(CO)[C@@H](O)C[C@]34C)[C@]2(C)CO)[C@H](O)[C@@H](O)[C@H]1O
class assignment: not met
//
compound: C[C@H]1O[C@@H](O[C@H]2CC[C@@]3(C)[C@@H](CC[C@]4(C)[C@@H]3C=CC3=C5CC(C)(C)CC[C@]5(CO)C(=O)C[C@]34C)[C@]2(C)CO)[C@H](O)[C@@H](O[C@@H]2O[C@H](CO)[C@@H](O)[C@H](O)[C@H]2O)[C@H]1O
class assignment: not met
//
compound: O=c1[nH]cc(F)c(=O)[nH]1
class assignment: met
//
compound: CC(=O)OC[C@H]1O[C@@H](O[C@H]2[C@@H](O)[C@@H](C)O[C@@H](O[C@H]3CC[C@@]4(C)[C@@H](CC[C@]5(C)[C@@H]4C=C[C@]46OC[C@@]7(CCC(C)(C)C[C@H]74)[C@@H](O)C[C@]65C)[C@]3(C)CO)[C@@H]2O)[C@H](O)[C@@H](O)[C@@H]1O
class assignment: not met
